The measurements presented in this section are drawn from patent US11780826B2.

tested on: Bovine cardiac myofibrils; experiment: In vitro model of dose-dependent myofibril ATPase modulation (AC1.4, pyruvate kinase/lactate dehydrogenase-coupled ATPase assay at pCa25); assay type: biochemical; details: concentration at which ATPase activity was 1.4-fold higher than the bottom of the dose curve, mean of a minimum of two independent tests
Below, each entry is listed alongside its reported AC1.4.
propertyMeasured: AC1.4 (µM)

1) N#CC1CN(S(=O)(=O)N2CCC[C@H](C(=O)N3CCC[C@@H]3C(=O)NCc3ccc(F)cc3F)C2)C1 [Example 360]	1.11
2) N#CC1CN(S(=O)(=O)N2CCC[C@H](C(=O)N3C[C@@H](O)C[C@@H]3C(=O)NCc3ccc(C(F)(F)F)cc3)C2)C1 [Example 581]	3.364
3) CS(=O)(=O)c1cncc(C(=O)N2C[C@@H](F)C[C@@H]2C(=O)N[C@@H](c2cc(F)c(C(F)(F)F)cc2F)C2CC2)c1 [Example 430]	1.474
4) CS(=O)(=O)c1cccc(C(=O)N2CCCC[C@@H]2C(=O)N[C@@H](c2ccc(C(F)F)cc2F)C2CC2)c1 [Example 578]	3.3475
5) CS(=O)(=O)c1ccc(NC2CCC2)c(C(=O)N2CCC[C@@H]2C(=O)N[C@@H](c2ccc(C(F)(F)F)cc2F)C2CC2)c1 [Example 44]	0.0434
6) CS(=O)(=O)c1cccc(C(=O)N2[C@@H](C(=O)N[C@@H](c3cc(F)c(Cl)cc3F)C3(O)CC3)C[C@H]3C[C@H]32)c1 [Example 316]	0.8325

====

tested on: Bovine cardiac myofibrils; assay: In vitro model of dose-dependent myofibril ATPase modulation (AC1.4, pyruvate kinase/lactate dehydrogenase-coupled ATPase assay at pCa25); assay type: biochemical; details: concentration at which ATPase activity was 1.4-fold higher than the bottom of the dose curve, mean of a minimum of two independent tests
Could you mark each record rule met if its AC1.4 falls strictly under 0.3 µM, and rule not met if it equals or exceeds it?

1) Cc1ccc([C@@H](C)NC(=O)[C@H]2CCCN2C(=O)[C@H]2CCCN(S(=O)(=O)N3CC(C#N)C3)C2)c(F)c1	rule met
2) O=C(NCc1ccc(Cl)c(F)c1)[C@H]1CCCN1C(=O)c1cccc(S(=O)(=O)N2CC(F)(F)C2)c1	rule not met
3) N#CC1CN(S(=O)(=O)N2CCCC(F)(C(=O)N3CCC[C@@H]3C(=O)NCc3ccc(C(F)(F)F)cc3)C2)C1 (stereo partly drawn) [Example 183]	rule not met
4) N#C[C@@H]1CCN(S(=O)(=O)N2CCC[C@H](C(=O)N3CCC[C@@H]3C(=O)NCc3ccc(C(F)(F)F)cc3)C2)C1	rule not met
5) Cc1ccc(CNC(=O)[C@H]2CCCN2C(=O)[C@H]2CCCN(S(=O)(=O)N3CC(C#N)C3)C2)cc1C(F)(F)F	rule not met
6) O=C(NCc1ccc(C(F)(F)F)cc1)[C@H]1CCCN1C(=O)[C@H]1CCCN(S(=O)(=O)N2CC(OCc3ccc(Cl)cc3)C2)C1	rule not met

====

test system: Bovine cardiac myofibrils; test: In vitro model of dose-dependent myofibril ATPase modulation (AC1.4, pyruvate kinase/lactate dehydrogenase-coupled ATPase assay at pCa25); format: biochemical; conditions: concentration at which ATPase activity was 1.4-fold higher than the bottom of the dose curve, mean of a minimum of two independent tests
Below, each entry is listed alongside its reported AC1.4.
propertyMeasured: AC1.4 (µM)

1) CC(NC(=O)[C@H]1CCCN1C(=O)[C@H]1CCCN(S(=O)(=O)N2CC(C#N)C2)C1)c1ccc(OC(F)F)cc1 (stereo partly drawn)	3.505
2) O=C(N[C@@H](c1ccc(C(F)(F)F)cc1F)C1CC1)[C@H]1C[C@H](F)CN1C(=O)c1cccc(C2(F)COC2)c1	3.5615
3) CS(=O)(=O)c1ccc(F)c(C(=O)N2CCC[C@@H]2C(=O)N[C@@H](c2ccc(C(F)(F)F)cc2F)C2CC2)c1F	2.8195

====

Below, each entry is listed alongside its reported AC1.4.
tested on: Bovine cardiac myofibrils; test: In vitro model of dose-dependent myofibril ATPase modulation (AC1.4, pyruvate kinase/lactate dehydrogenase-coupled ATPase assay at pCa25); type: biochemical; conditions: concentration at which ATPase activity was 1.4-fold higher than the bottom of the dose curve, mean of a minimum of two independent tests
propertyMeasured: AC1.4 (µM)

1) CC(NC(=O)[C@H]1CCCN1C(=O)[C@H]1CCCN(S(=O)(=O)N2CC(C#N)C2)C1)c1ccc(F)cc1 (stereo partly drawn)	6.7185
2) CC(C)(C)c1cc(C(=O)N2[C@@H](C(=O)N[C@@H](c3ccc(C(F)(F)F)cc3F)C3COC3)C[C@H]3C[C@H]32)ccn1	4.4125
3) N#CC1CN(S(=O)(=O)N2CCC[C@H](C(=O)N3CCC[C@@H]3C(=O)N[C@@H](CO)c3ccc(Cl)cc3)C2)C1	6.8025

====

test system: Bovine cardiac myofibrils; assay: In vitro model of dose-dependent myofibril ATPase modulation (AC1.4, pyruvate kinase/lactate dehydrogenase-coupled ATPase assay at pCa25); assay type: biochemical; settings: concentration at which ATPase activity was 1.4-fold higher than the bottom of the dose curve, mean of a minimum of two independent tests
Below, each entry is listed alongside its reported AC1.4.
propertyMeasured: AC1.4 (µM)

1) N#CC1CN(S(=O)(=O)N2CCC[C@H](C(=O)N3CCC[C@@H]3C(=O)NCc3ccccc3C(F)(F)F)C2)C1	7.268
2) N#CC1CN(S(=O)(=O)N2CCC[C@H](C(=O)N3CCC[C@@H]3C(=O)NCc3ccccc3F)C2)C1	5.1985
3) CC(C)c1cccc(C(=O)N2CCC[C@@H]2C(=O)N[C@@H](c2ccc(C(F)(F)F)cc2F)C2CC2)c1	1.515
4) O=C(N[C@@H](c1ccc(C(F)(F)F)cc1F)C1COC1)[C@H]1C[C@H]2C[C@H]2N1C(=O)c1cc(C2CC2)ccn1	6.2625
5) NS(=O)(=O)c1cccc(C(=O)N2CCCC[C@@H]2C(=O)N[C@@H](c2cc(F)c(Cl)cc2F)C2CC2)c1	0.385
6) C[C@@H](NC(=O)[C@H]1CCCN1C(=O)c1cccc(S(=O)(=O)N2CC(C#N)C2)c1)c1ccc(Cl)cc1	0.08898
7) CC(C)(O)c1cccc(C(=O)N2CCC[C@@H]2C(=O)N[C@@H](c2ccc(C(F)(F)F)cc2F)C2CC2)c1	9.2425
8) Cc1ccc(F)c(CNC(=O)[C@H]2CCCN2C(=O)[C@H]2CCCN(S(=O)(=O)N3CC(C#N)C3)C2)c1	4.2755
9) N#CC1CN(S(=O)(=O)N2CCC[C@H](C(=O)N3CCC[C@@H]3C(=O)NCc3ccc(OC(F)F)cc3)C2)C1	1.681
10) C[C@@H](NC(=O)[C@H]1CCCN1C(=O)c1cccc(S(=O)(=O)N2CC(C#N)C2)c1)c1ccc(C(F)(F)F)cc1	0.04135
11) N#CC1CN(S(=O)(=O)c2cccc(C(=O)N3CCC[C@@H]3C(=O)NCc3ncc(Cl)s3)c2)C1	1.2296
12) N#CC1CN(S(=O)(=O)N2CCC[C@H](C(=O)N3CCC[C@@H]3C(=O)NCc3ccc(Cl)c(F)c3)C2)C1	0.0553
13) CC1(c2cccc(C(=O)N3CCC[C@@H]3C(=O)N[C@@H](c3ccc(C(F)(F)F)cc3F)C3CC3)c2)COC1	5.3575
14) N#CC1CN(S(=O)(=O)N2CC[C@H](C(=O)N3CCC[C@@H]3C(=O)NCc3ccc(C(F)(F)F)cc3F)C2)C1	1.9915

====

test system: Bovine cardiac myofibrils; assay: In vitro model of dose-dependent myofibril ATPase modulation (AC1.4, pyruvate kinase/lactate dehydrogenase-coupled ATPase assay at pCa25); assay type: biochemical; conditions: concentration at which ATPase activity was 1.4-fold higher than the bottom of the dose curve, mean of a minimum of two independent tests
propertyMeasured: log10 AC1.4 (log10 of the value in µM)

1. CS(=O)(=O)c1cccc(C(=O)N2CCC[C@@H]2C(=O)N[C@@H](c2ccc(C(F)(F)F)cc2F)C2CC2)c1	0.02
2. C[C@H](C(=O)NCc1ccc(Cl)cc1)N(C)C(=O)c1cccc(S(=O)(=O)N2CC(C#N)C2)c1	-0.02
3. O=C(N[C@@H](c1cc(F)c(Cl)cc1F)C1COC1)[C@H]1C[C@H](O)CN1C(=O)c1ccnc(C(F)(F)F)c1	0.81
4. CS(=O)(=O)c1cccc(C(=O)N2C[C@@H](F)C[C@@H]2C(=O)N[C@@H](c2ccc(C(F)(F)F)c(F)c2)C2COC2)c1	-0.16
5. O=C(N[C@@H](c1ccc(C(F)(F)F)cc1F)C1CC1)[C@H]1CCCN1C(=O)c1cccc(-c2cn[nH]c2)c1	0.85
6. O=C(NCc1ccc(C(F)(F)F)cc1)[C@H]1CCCN1C(=O)[C@H]1CCCN(S(=O)(=O)N2CC(c3cccc(Cl)c3)C2)C1	0.15
7. Cc1ccc(S(N)(=O)=O)cc1C(=O)N1CCC[C@@H]1C(=O)N[C@@H](c1ccc(C(F)(F)F)cc1F)C1CC1	0.79
8. C[C@@H](NC(=O)[C@H]1COCCN1C(=O)[C@H]1CCCN(S(=O)(=O)N2CC(C#N)C2)C1)c1ccc(C(F)(F)F)cc1F	-1.23
9. O=C(N[C@@H](c1ccc(C(F)(F)F)c(F)c1)C1CC1)[C@H]1C[C@H]2C[C@H]2N1C(=O)c1cncc(S(=O)(=O)C2CC2)c1	0.34
10. COc1cc(F)cc(CNC(=O)[C@H]2CCCN2C(=O)[C@H]2CCCN(S(=O)(=O)N3CC(C#N)C3)C2)c1	0.70
11. N#CC1CN(S(=O)(=O)c2cccc(C(=O)N3CCC[C@@H]3C(=O)NCc3ccc(CF)cc3)c2)C1	-0.56
12. CS(=O)(=O)c1cccc(C(=O)N2CC[C@@H]3C[C@]32C(=O)N[C@@H](c2ccc(C(F)(F)F)cc2F)C2CC2)c1	0.87
13. O=C(N[C@@H](c1cc(F)c(Cl)cc1F)C1COC1)[C@H]1C[C@H]2C[C@H]2N1C(=O)c1cccc(S(=O)(=O)CCO)c1	-0.85
14. N#CC1CN(S(=O)(=O)N2CCC[C@H](C(=O)N3CCC[C@@H]3C(=O)NCc3ccc(C(F)(F)F)cc3F)C2)C1	-1.14
15. CS(=O)(=O)c1cc(F)cc(C(=O)N2[C@@H](C(=O)N[C@@H](c3cc(F)c(Cl)cc3F)C3COC3)C[C@H]3C[C@H]32)c1	-0.94
16. CS(=O)(=O)c1cccc(C(=O)N2CC[C@H]2C(=O)N[C@@H](c2cc(F)c(Cl)cc2F)C2CC2)c1	0.83
17. CCS(=O)(=O)c1cccc(C(=O)N2[C@@H](C(=O)N[C@@H](c3ccc(C(F)(F)F)cc3F)C3COC3)C[C@H]3C[C@H]32)c1	-0.68
18. N#CC1CN(S(=O)(=O)N2CCC[C@H](C(=O)N3CCC[C@@H]3C(=O)NC(CO)c3ccc(C(F)(F)F)cc3)C2)C1 (some centres unmarked)	-0.66
19. N#CC1CN(S(=O)(=O)N2CCC[C@H](C(=O)N3CCC[C@@H]3C(=O)N[C@@H](c3ccc(Cl)cc3)C(F)(F)F)C2)C1	-0.09
20. CS(=O)(=O)c1cccc(C(=O)N2CCCC[C@@H]2C(=O)N[C@@H](c2ccc(C(F)(F)F)c(F)c2)C2CC2)c1	-0.10
21. CNc1ccc(S(C)(=O)=O)cc1C(=O)N1[C@@H](C(=O)N[C@@H](c2ccc(C(F)(F)F)cc2F)C2CC2)C[C@H]2C[C@H]21	-0.59
22. N#CC1CN(S(=O)(=O)N2CCC[C@H](C(=O)N3CCC[C@@H]3C(=O)NCc3ccc(C(F)(F)F)c(F)c3)C2)C1	-1.47
23. CS(=O)(=O)c1cccc(C(=O)N2C[C@@H](F)C[C@@H]2C(=O)N[C@@H](c2cc(F)c(Cl)cc2F)C2COC2)c1	-0.63
24. CC1(C)CN(S(=O)(=O)c2cccc(C(=O)N3CCC[C@@H]3C(=O)NCc3ccc(C(F)(F)F)cc3)c2)C1	-0.27
25. O=C(N[C@@H](c1cc(F)c(Cl)cc1F)C1COC1)[C@H]1C[C@@H](O)CN1C(=O)c1ccnc(C(F)(F)F)c1	0.15
26. C[C@@H](NC(=O)[C@H]1CCCN1C(=O)c1cccc(S(=O)(=O)N(C)C)c1)c1ccc(C(F)(F)F)cc1	0.23
